Parameter Papp at 10 µM: see the listing below.
# Assay notes: PAMPA, compounds measured in multiplex as mixtures (primary protocol)
# Condition parameters: PAMPA, pH 7.4, PAMPA Papp, internal standard, 10 µM, Lipo expt. group A1
Just the number in ×10⁻⁶ cm/s, nothing appended.

- NC(=O)N1c2ccccc2C=Cc2ccccc21 [Carbamazepine]: 5.9

Attention now shifts to the item below.
Item under review: CC(C)NCC(O)COc1cccc2ccccc12 (centres unmarked) . Reported Papp at 10 µM?
9.1

---

Catalogue of Papp at 10 µM values
# Assay notes: in vitro
# Condition parameters: PAMPA, pH 7.4, Permeability (Papp) PAMPA (indiv.)
Positions of bridges follow the written chain, without caps; N, C: chain ends. Non-standard residues stand in square brackets, D forms with d. Residues, ends and D or L forms follow the SMILES beside them. Cha = N[C@@H](CC1CCCCC1)C(=O)O; NMeNva = CCC[C@H](NC)C(=O)O; NMeAbu = CC[C@H](NC)C(=O)O; NMeC = CN[C@@H](CS)C(=O)O; NMeA = CN[C@@H](C)C(=O)O; Nva = CCC[C@H](N)C(=O)O; Abu = CC[C@H](N)C(=O)O; NPrGly = CCCNCC(=O)O; NEtG = CCNCC(=O)O
// units = ×10⁻⁶ cm/s; emit number, no label

Please review the following examples before continuing.
* CCC[C@@H]1NC(=O)[C@H](C)N(C)C(=O)[C@H](CC(C)C)NC(=O)CSC[C@@H](C(=O)OCC)N(C)C(=O)[C@H](CC(C)C)NC(=O)[C@H](C)N(C)C(=O)[C@H](CC2CCCCC2)NC(=O)CN(CC)C(=O)[C@H]2CCCN2C1=O [LA09] ({CH2CO}-L[NMeA][Nva][dP][NEtG][Cha][NMeA]L[NMeC]-OEt; thioether N-9) | 0.2
* CCOC(=O)[C@@H]1CSCC(=O)N[C@@H](CC(C)C)C(=O)N(CC)CC(=O)N[C@@H](CC(C)C)C(=O)N2CCC[C@@H]2C(=O)N(C)[C@@H](C)C(=O)N[C@@H](CC)C(=O)N(C)[C@@H](C)C(=O)N[C@@H](CC(C)C)C(=O)N1C [LB02] ({CH2CO}-L[NEtG]L[dP][NMeA][Abu][NMeA]L[NMeC]-OEt; thioether N-9) | 1.1
* CCC[C@H]1C(=O)N[C@@H](CC)C(=O)N(C)[C@@H](C)C(=O)N[C@@H](CC(C)C)C(=O)N(C)[C@H](C(=O)OCC)CSCC(=O)N[C@@H](CC(C)C)C(=O)N(C)[C@@H](C)C(=O)N[C@@H](CC(C)C)C(=O)N2CCC[C@@H]2C(=O)N1C [LC04] ({CH2CO}-L[NMeA]L[dP][NMeNva][Abu][NMeA]L[NMeC]-OEt; thioether N-9) | 3.3
* CCCN1CC(=O)N[C@@H](CC)C(=O)N(C)[C@@H](C)C(=O)N[C@@H](CC(C)C)C(=O)N(C)[C@H](C(=O)OCC)CSCC(=O)N[C@@H](CC(C)C)C(=O)N(C)[C@@H](C)C(=O)N[C@@H](CC(C)C)C(=O)N2CCC[C@@H]2C1=O [LA04] ({CH2CO}-L[NMeA]L[dP][NPrGly][Abu][NMeA]L[NMeC]-OEt; thioether N-9) | 3.9
* CCC[C@@H]1NC(=O)[C@H](C)N(C)C(=O)[C@H](CC(C)C)NC(=O)CSC[C@@H](C(=O)OCC)N(C)C(=O)[C@H](CC(C)C)NC(=O)[C@H](C)N(C)C(=O)[C@H](CC(C)C)NC(=O)CN(CCC)C(=O)[C@H]2CCCN2C1=O [LA07] ({CH2CO}-L[NMeA][Nva][dP][NPrGly]L[NMeA]L[NMeC]-OEt; thioether N-9) | 1.3

Please find the next compound below.
For the compound CCC[C@@H]1NC(=O)[C@H](C)N(C)C(=O)[C@H](CC(C)C)NC(=O)CSC[C@@H](C(=O)OCC)N(C)C(=O)[C@H](CC(C)C)NC(=O)[C@H](C)N(C)C(=O)[C@H](CC2CCCCC2)NC(=O)[C@H](CC)N(C)C(=O)[C@H]2CCCN2C1=O [LC09] ({CH2CO}-L[NMeA][Nva][dP][NMeAbu][Cha][NMeA]L[NMeC]-OEt; thioether N-9) , what Papp at 10 µM is on record?
0.3

---

# Assay notes: in vitro
# Condition parameters: PAMPA, pH 7.4, Permeability (Papp) PAMPA (indiv.)
Positions of bridges follow the written chain, without caps; N, C: chain ends. Non-standard residues stand in square brackets, D forms with d. Residues, ends and D or L forms follow the SMILES beside them. Cha = N[C@@H](CC1CCCCC1)C(=O)O; NMeNva = CCC[C@H](NC)C(=O)O; NMeC = CN[C@@H](CS)C(=O)O; NMeA = CN[C@@H](C)C(=O)O; Nva = CCC[C@H](N)C(=O)O; Abu = CC[C@H](N)C(=O)O; NPrGly = CCCNCC(=O)O; NEtG = CCNCC(=O)O
Measured Papp at 10 µM, listed per entry.
I only need the number, in ×10⁻⁶ cm/s, no unit after it.

Solved entries (count: 3):
- CCC[C@@H]1NC(=O)CN(CC)C(=O)[C@H](CC(C)C)NC(=O)CSC[C@@H](C(=O)OCC)N(C)C(=O)[C@H](CC(C)C)NC(=O)[C@H](C)N(C)C(=O)[C@H](CC2CCCCC2)NC(=O)[C@H](C)N(C)C(=O)[C@H]2CCCN2C1=O [LB09] ({CH2CO}-L[NEtG][Nva][dP][NMeA][Cha][NMeA]L[NMeC]-OEt; thioether N-9): 1.4
- CCC[C@@H]1NC(=O)CN(CCC)C(=O)[C@H](CC(C)C)NC(=O)CSC[C@@H](C(=O)OCC)N(C)C(=O)[C@H](CC(C)C)NC(=O)[C@H](C)N(C)C(=O)[C@H](CC(C)C)NC(=O)[C@H](C)N(C)C(=O)[C@H]2CCCN2C1=O [LB07] ({CH2CO}-L[NPrGly][Nva][dP][NMeA]L[NMeA]L[NMeC]-OEt; thioether N-9): 2.2
- CCOC(=O)[C@@H]1CSCC(=O)N[C@@H](CC(C)C)C(=O)N(C)[C@@H](C)C(=O)N[C@@H](CC(C)C)C(=O)N2CCC[C@@H]2C(=O)N(CC)CC(=O)N[C@@H](CC)C(=O)N(C)[C@@H](C)C(=O)N[C@@H](CC(C)C)C(=O)N1C [LA02] ({CH2CO}-L[NMeA]L[dP][NEtG][Abu][NMeA]L[NMeC]-OEt; thioether N-9): 4.1

Now consider the entry below.
Could you share which Papp at 10 µM value was measured for CCC[C@@H]1NC(=O)[C@H](C)N(C)C(=O)[C@H](CC(C)C)NC(=O)CSC[C@@H](C(=O)OCC)N(C)C(=O)[C@H](CC(C)C)NC(=O)[C@H](C)N(C)C(=O)[C@H](CC(C)C)NC(=O)[C@H](CCC)N(C)C(=O)[C@H]2CCCN2C1=O [LC07] ({CH2CO}-L[NMeA][Nva][dP][NMeNva]L[NMeA]L[NMeC]-OEt; thioether N-9) ?
1.1

---

Recorded measurements of Papp at 10 µM, one per entry
# Assay notes: in vitro
# Condition parameters: PAMPA, pH 7.4, PAMPA Pe_avg
Positions of bridges follow the written chain, without caps; N, C: chain ends. Non-standard residues stand in square brackets, D forms with d. Residues, ends and D or L forms follow the SMILES beside them. NMeC = CN[C@@H](CS)C(=O)O; NMeA = CN[C@@H](C)C(=O)O; dAbu = CC[C@@H](N)C(=O)O; dNMeA = CN[C@H](C)C(=O)O; Abu = CC[C@H](N)C(=O)O; Nleu = CC(C)CNCC(=O)O
Supply the numeric figure in ×10⁻⁶ cm/s, leaving out any unit text.

Illustrative cases are given below, each with its answer.
• CCOC(=O)[C@@H]1CSCC(=O)N[C@H](CC)C(=O)N(CC(C)C)CC(=O)N[C@@H](CC(C)C)C(=O)N2CCC[C@@H]2C(=O)N(C)[C@@H](C)C(=O)N[C@H](CC(C)C)C(=O)N(C)[C@H](C)C(=O)N[C@@H](CC(C)C)C(=O)N1C [B1-4dP] ({CH2CO}-[dAbu][Nleu]L[dP][NMeA][dL][dNMeA]L[NMeC]-OEt; thioether N-9) = 0.213
• CCOC(=O)[C@@H]1CSCC(=O)N[C@@H](CC)C(=O)N(CC(C)C)CC(=O)N[C@@H](CC(C)C)C(=O)N(C)[C@H](C)C(=O)N(C)[C@@H](C)C(=O)N[C@H](CC(C)C)C(=O)N(C)[C@H](C)C(=O)N[C@@H](CC(C)C)C(=O)N1C [B1-1L] ({CH2CO}-[Abu][Nleu]L[dNMeA][NMeA][dL][dNMeA]L[NMeC]-OEt; thioether N-9) = 0.455
• CCOC(=O)[C@@H]1CSCC(=O)N[C@H](CC)C(=O)N(CC(C)C)CC(=O)N[C@@H](CC(C)C)C(=O)N(C)[C@H](C)C(=O)N(C)[C@@H](C)C(=O)N[C@@H](CC(C)C)C(=O)N(C)[C@H](C)C(=O)N[C@@H](CC(C)C)C(=O)N1C [B1-6L] ({CH2CO}-[dAbu][Nleu]L[dNMeA][NMeA]L[dNMeA]L[NMeC]-OEt; thioether N-9) = 0.738

Papp at 10 µM lookup needed for CCOC(=O)[C@@H]1CSCC(=O)N[C@H](CC)C(=O)N(C)[C@@H](C)C(=O)N[C@@H](CC(C)C)C(=O)N2CCC[C@@H]2C(=O)N(CC(C)C)CC(=O)N[C@H](CC(C)C)C(=O)N(C)[C@H](C)C(=O)N[C@@H](CC(C)C)C(=O)N1C [A1-4dP] ({CH2CO}-[dAbu][NMeA]L[dP][Nleu][dL][dNMeA]L[NMeC]-OEt; thioether N-9) , thanks.
0.398
